- Organism: Rattus norvegicus
- Protocol summary: Biodistribution of radioactivity in rat cerebellum upon Tail-Vein injection of [11C]-labeled compound after 5 min
- Type: ADME, organism-based
- Test context: in vivo, iv
// values below are reported ID/g

// known answers, use as guide
q: Endpoint output: ID/g of `CN(C)Cc1ccccc1Sc1ccc(C(F)(F)F)cc1N` . Value?
a: 0.92%

q: Endpoint output: ID/g of `CN(C)Cc1ccccc1Sc1ccc(C#N)cc1N` . Value?
a: 0.76%

q: Endpoint output: ID/g of `CN(C)Cc1ccccc1Sc1ccc(Cl)cc1N` . Value?
a: 1.03%

***
q: Endpoint output: ID/g of `COc1ccc(Sc2ccccc2CN(C)C)c(N)c1` . Value?
a: 0.8%

###

// values below are reported ID/g
- Organism: Rattus norvegicus
- Protocol summary: Biodistribution of radioactivity in rat cortex upon Tail-Vein injection of [11C]-labeled compound after 5 min
- Assay type: ADME, organism-based
- Test context: in vivo, iv
Output spec: scalar in %, unitless text.

// known answers, use as guide
q: Endpoint output: ID/g of `CN(C)Cc1ccccc1Sc1ccc(C#N)cc1N` . Value?
a: 1.46

q: Endpoint output: ID/g of `CN(C)Cc1ccccc1Sc1ccc(C(F)(F)F)cc1N` . Value?
a: 1.09

q: Endpoint output: ID/g of `COc1ccc(Sc2ccccc2CN(C)C)c(N)c1` . Value?
a: 1.37

***
q: Endpoint output: ID/g of `CN(C)Cc1ccccc1Sc1ccc(Cl)cc1N` . Value?
a: 1.39

###

- Protocol summary: Log P at pH 7.4
- Assay type: physicochemical
- Test context: buffer, read-out: logD
// values below are reported logD

// known answers, use as guide
q: Endpoint output: logD of `CN(C)Cc1ccccc1Sc1ccc(C(F)(F)F)cc1N` . Value?
a: 3.77

q: Endpoint output: logD of `CN(C)Cc1ccccc1Sc1ccc(Cl)cc1N` . Value?
a: 3.55

Next, consider the following compound.
q: Endpoint output: logD of `COc1ccc(Sc2ccccc2CN(C)C)c(N)c1` . Value?
a: 2.83
